Tested on: PDGFRA
Conditions: concentration: 1 μM, replicates: in singlicate; n = 1;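 also: KINOMEscan kinase panel screen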
Listing of entries alongside the reported %Inh.
Numbers only; they are read as %.

Below, 3 compounds whose answers are already recorded.
Cl.NC(=O)c1cccc(Nc2nccc(Nc3ccc(Oc4c(Cl)cccc4Cl)c(Cl)c3)n2)c1 :: 0
O=C(Nc1cccc(Oc2ccc3nc(NC(=O)C4CC4)cn3n2)c1)c1ccccc1C(F)(F)F :: 99.7
O=C(Nc1n[nH]c2cc(-c3ccoc3)ccc12)C1CC1 :: 62

Read the next record carefully.
# %Inh of O=C(Nc1cccc(-c2nn3ccccc3c2-c2ccnc(Nc3cccc(F)c3)n2)c1)c1c(F)ccc(F)c1Cl = 18

----------
%Inh values by entry
System: CDK11
Construct: gene CDK19
Conditions: concentration: 1 μM, replicates: in singlicate; n = 1
All answers are understood in %, so give the number only.

Here's what some known entries look like.
CNC(=O)c1ccccc1Nc1nc(Nc2ccc(N3CCOCC3)cc2)ncc1Cl.Cl [GSK1576028] :: 0
CCS(=O)(=O)c1ccc(OC)c(Nc2nccc(-c3c(-c4cccc(NC(=O)c5c(F)cccc5F)c4)nn4ncccc34)n2)c1 [GSK326180] :: 11
CSc1cccc2c(-c3ccncn3)c(-c3ccc(F)cc3)nn12 [GW514786] :: 8

Moving on to the next molecule.
For O=C(Nc1cccc(-c2nn3ncccc3c2-c2ccnc(Nc3ccccc3)n2)c1)c1c(F)cccc1F [GSK198271] the molecule record lists %Inh as 0

----------
Test system: STK35
Conditions: concentration: 1 μM, replicates: in singlicate; n = 1
MEASURED_ATTRIBUTE: %Inh (%)
// return numeric value only (unit: %, not printed)

Cc1ccc(C(=O)N2CC[C@@H](O)C2)cc1-n1c(C)cc(OCc2ccc(F)cc2F)c(Br)c1=O :: 0
CN(C)Cc1ccc(-c2ccc3c(Nc4ccc(Oc5ccccn5)cc4)ccnc3c2)o1 [GW567148] :: 66
COc1cc(Nc2nccc(N3CCC(NC(=O)Nc4cccc(C(C)=O)c4)C3)n2)cc(OC)c1OC (centres unmarked) [GSK1379753] :: 0
Fc1ccc(-c2ncn(C3CCNCC3)c2-c2ccnc(Oc3ccc(-c4ccccc4)cc3)n2)cc1 [SB-245391] :: 0
Cn1cc(-c2[nH]c3cc(NC(=O)[C@H](N)C4CCCCC4)cc4c3c2C=NNC4=O)cn1 :: 53

The reported value for Cc1cccc(NC(=O)Nc2ccc(Oc3ncnc4ccn(C)c34)cc2)c1 in terms of %Inh is 0

So, CN1CCN(CCCNc2nccc(-c3c(-c4ccc(F)cc4)nn4cc(C(F)(F)F)ccc34)n2)CC1 [GW621581] ? Its %Inh was 60

Entry Cc1ccc(C)c(NC(=O)NC2CCN(c3ccnc(Nc4ccc(F)cc4)n3)C2)c1 (centres unmarked) [GSK1379720] — recorded %Inh = 0

----------
Tested on: EPHB3
Settings: concentration: 1 μM, replicates: in singlicate; n = 1
Reported %Inh values for a set of compounds
Quick reminder: number only, in %, skip the unit.

CN1CCN(CCCNc2nccc(-c3c(-c4ccc(F)cc4)nn4cc(C(F)(F)F)ccc34)n2)CC1 :: 0
NCCCC(NC(=O)c1cc(Br)c(-c2ccnc3[nH]ccc23)s1)c1ccccc1.O=C(O)C(F)(F)F.O=C(O)C(F)(F)F (stereo not shown) :: 0
CCn1c(-c2nonc2N)nc2c(C#CC(C)(C)O)ncc(OCCCCN)c21.O=C(O)C(F)(F)F.O=C(O)C(F)(F)F :: 27

Kindly review the next compound as well.
The compound Cl.Cl.NCC(C(=O)Nc1cc(Br)c(-c2ccnc3[nH]ccc23)s1)c1ccccc1 (stereo not shown) showed %Inh equal to 27
